Ref: BigSolDB 2.1

Conditions: in ethanol, 303.15 K
Test readout: solubility (mole fraction)

Summary for this compound, `O=C1NS(=O)(=O)c2ccccc21` : solubility (mole fraction) is 0.0108

====

Conditions: in acetonitrile, 313.15 K
Test readout: solubility (mole fraction)
Give bare numbers.

Summary for this compound, `O=C1NS(=O)(=O)c2ccccc21` : solubility (mole fraction) is 0.012

====

Conditions: in acetonitrile, 298.15 K
Test readout: solubility (mole fraction)
One number for each entry.

Summary for this molecule, `O=C1NS(=O)(=O)c2ccccc21` : solubility (mole fraction) is 0.00809

====

Conditions: in acetonitrile, 318.15 K
Test readout: solubility (mole fraction)
Give bare numbers.

Summary for this molecule, `O=C1NS(=O)(=O)c2ccccc21` : solubility (mole fraction) is 0.0143

====

Conditions: in methanol, 318.15 K
Test readout: solubility (mole fraction)
Give bare numbers.

Summary for this molecule, `O=C1NS(=O)(=O)c2ccccc21` : solubility (mole fraction) is 0.0187

====

Settings: in ethanol, 293.15 K
Test readout: solubility (mole fraction)
One number for each entry.

Summary for this molecule, `O=C1NS(=O)(=O)c2ccccc21` : solubility (mole fraction) is 0.00821

====

Conditions: in methanol, 303.15 K
Test readout: solubility (mole fraction)
Answers are plain numbers.

Summary for this compound, `O=C1NS(=O)(=O)c2ccccc21` : solubility (mole fraction) is 0.012

====

Settings: in isopropanol, 298.15 K
Test readout: solubility (mole fraction)
Answers are plain numbers.

Summary for this compound, `O=C1NS(=O)(=O)c2ccccc21` : solubility (mole fraction) is 0.00942

====

Conditions: in isopropanol, 318.15 K
Test readout: solubility (mole fraction)
Give bare numbers.

Summary for this compound, `O=C1NS(=O)(=O)c2ccccc21` : solubility (mole fraction) is 0.0193

====

Conditions: in methanol, 313.15 K
Test readout: solubility (mole fraction)
Answers are plain numbers.

Summary for this compound, `O=C1NS(=O)(=O)c2ccccc21` : solubility (mole fraction) is 0.0161

====

Conditions: in acetonitrile, 293.15 K
Test readout: solubility (mole fraction)
Numbers only.

Summary for this compound, `O=C1NS(=O)(=O)c2ccccc21` : solubility (mole fraction) is 0.00739

====

Settings: in acetonitrile, 323.15 K
Test readout: solubility (mole fraction)
One number for each entry.

Summary for this compound, `O=C1NS(=O)(=O)c2ccccc21` : solubility (mole fraction) is 0.0157

====

Conditions: in methanol, 308.15 K
Test readout: solubility (mole fraction)
Give bare numbers.

Summary for this molecule, `O=C1NS(=O)(=O)c2ccccc21` : solubility (mole fraction) is 0.0136

====

Conditions: in ethanol, 313.15 K
Test readout: solubility (mole fraction)
Numbers only.

Summary for this molecule, `O=C1NS(=O)(=O)c2ccccc21` : solubility (mole fraction) is 0.0144

====

Details: in ethanol, 323.15 K
Test readout: solubility (mole fraction)
One number for each entry.

Summary for this compound, `O=C1NS(=O)(=O)c2ccccc21` : solubility (mole fraction) is 0.0196

====

Settings: in acetonitrile, 308.15 K
Test readout: solubility (mole fraction)
One number for each entry.

Summary for this molecule, `O=C1NS(=O)(=O)c2ccccc21` : solubility (mole fraction) is 0.0105

====

Conditions: in isopropanol, 313.15 K
Test readout: solubility (mole fraction)
One number for each entry.

Summary for this compound, `O=C1NS(=O)(=O)c2ccccc21` : solubility (mole fraction) is 0.016
